Molecular target: HLA-A*02:01 (Homo sapiens, UniProt P04439, D140Y/D185E/D98H/E176V/E277Q/G131W/G231S/I119V/I121R/I166T/I218V/L300P/L318F/N151K/N90K/P208A/P217A/Q86G/Q94H/R138H/R169H/T345S)
Test: MHC binding assay (UV-ligand exchange, β2m ELISA, peptide exchange yield)
Details: binding of HLA-class I restricted peptides to HLA-A*02:01, UV-ligand exchange
measured-attribute: Peptide exchange (MHC class I binding score, peptide exchange yield)

A selection of reference data follows.
{"substance": "47 (ILLSVPLLVV; listed as Homo sapiens) [compound 47]", "assay-value": "“++” (≥20% = ++)"}
{"substance": "18 (YLVAKLVEV; listed as Homo sapiens) [compound 18]", "assay-value": "“++” (≥20% = ++)"}
{"substance": "388 (SLTIDGIRYV; listed as Homo sapiens) [compound 388]", "assay-value": "“+++” (≥50 = +++)"}
{"substance": "467 (FLAKDFNFL; listed as Homo sapiens) [compound 467]", "assay-value": "“+++” (≥50 = +++)"}
{"substance": "42 (VLLQKIVSA; listed as Homo sapiens) [compound 42]", "assay-value": "“+++” (≥50 = +++)"}

In: Fill in: Peptide exchange (MHC class I binding score, peptide exchange yield) of 183 (FGLDLVTEL; listed as Homo sapiens) [compound 183] is ___
Out: “+++” (≥50 = +++)

In: Could you tell me which Peptide exchange (MHC class I binding score, peptide exchange yield) is on file for 316 (ILLERLWYV; listed as Homo sapiens) [compound 316] ?
Out: “+++” (≥50 = +++)

In: Could you tell me which Peptide exchange (MHC class I binding score, peptide exchange yield) is on file for 343 (SLLEVNEESTV; listed as Homo sapiens) [compound 343] ?
Out: “+++” (≥50 = +++)

* * *

Molecular target: HLA-A*02:01 (Homo sapiens, UniProt P04439, D140Y/D185E/D98H/E176V/E277Q/G131W/G231S/I119V/I121R/I166T/I218V/L300P/L318F/N151K/N90K/P208A/P217A/Q86G/Q94H/R138H/R169H/T345S)
Test: MHC binding assay (UV-ligand exchange, β2m ELISA, peptide exchange yield)
Conditions: binding of HLA-class I restricted peptides to HLA-A*02:01, UV-ligand exchange
measured-attribute: Peptide exchange (MHC class I binding score, peptide exchange yield)

// solved cases for Peptide exchange (MHC class I binding score, peptide exchange yield) follow
{"substance": "481 (GLIEDYEALL; listed as Homo sapiens) [compound 481]", "assay-value": "“+++” (≥50 = +++)"}
{"substance": "490 (FLLQHVQEL; listed as Homo sapiens) [compound 490]", "assay-value": "“+++” (≥50 = +++)"}
{"substance": "524 (ALIENLTHQI; listed as Homo sapiens) [compound 524]", "assay-value": "“++” (≥20% = ++)"}
{"substance": "190 (FLSSLTETI; listed as Homo sapiens) [compound 190]", "assay-value": "“+++” (≥50 = +++)"}
{"substance": "590 (SLIEKLWQT; listed as Homo sapiens) [compound 590]", "assay-value": "“++” (≥20% = ++)"}
{"substance": "398 (KLLEEDGTIITL; listed as Homo sapiens) [compound 398]", "assay-value": "“++” (≥20% = ++)"}
{"substance": "234 (ALMEDTGRQML; listed as Homo sapiens) [compound 234]", "assay-value": "“++” (≥20% = ++)"}

In: # input substance: 499 (KIFDIDEAEEGV; listed as Homo sapiens) [compound 499] ; wanted: its Peptide exchange (MHC class I binding score, peptide exchange yield)
Out: “++” (≥20% = ++)

* * *

Target: HLA-A*02:01 (Homo sapiens, UniProt P04439, D140Y/D185E/D98H/E176V/E277Q/G131W/G231S/I119V/I121R/I166T/I218V/L300P/L318F/N151K/N90K/P208A/P217A/Q86G/Q94H/R138H/R169H/T345S)
Assay: MHC binding assay (UV-ligand exchange, β2m ELISA, peptide exchange yield)
Conditions: binding of HLA-class I restricted peptides to HLA-A*02:01, UV-ligand exchange
measured-attribute: Peptide exchange (MHC class I binding score, peptide exchange yield)

{"substance": "558 (GLLENIPRV; listed as Homo sapiens) [compound 558]", "assay-value": "“+++” (≥50 = +++)"}
{"substance": "184 (YLMDINGKMWL; listed as Homo sapiens) [compound 184]", "assay-value": "“+++” (≥50 = +++)"}
{"substance": "27 (ILADIVISA; listed as Homo sapiens) [compound 27]", "assay-value": "“+++” (≥50 = +++)"}
{"substance": "19 (FMVDNEAIYDI; listed as Homo sapiens) [compound 19]", "assay-value": "“++++” (≥75% = ++++)"}
{"substance": "500 (SLMEDQVLQL; listed as Homo sapiens) [compound 500]", "assay-value": "“+++” (≥50 = +++)"}

In: Peptide exchange (MHC class I binding score, peptide exchange yield) lookup needed for 317 (SLAALVVHV; listed as Homo sapiens) [compound 317] , thanks.
Out: “+++” (≥50 = +++)

In: # query: Peptide exchange (MHC class I binding score, peptide exchange yield) of entry 66 (FLDENIGGVAV; listed as Homo sapiens) [compound 66]
Out: “+++” (≥50 = +++)

In: Look up Peptide exchange (MHC class I binding score, peptide exchange yield): 370 (SLLQDLVSV; listed as Homo sapiens) [compound 370]
Out: “+++” (≥50 = +++)

In: Need Peptide exchange (MHC class I binding score, peptide exchange yield) of 62 (VLLDVSAGQLLM; listed as Homo sapiens) [compound 62] , thanks.
Out: “++++” (≥75% = ++++)

In: What value of Peptide exchange (MHC class I binding score, peptide exchange yield) has been recorded for this entry: 346 (LLDSKVPSV; listed as Homo sapiens) [compound 346]
Out: “+++” (≥50 = +++)

In: Please look up its Peptide exchange (MHC class I binding score, peptide exchange yield): 353 (YLFEMDSSL; listed as Homo sapiens) [compound 353]
Out: “++” (≥20% = ++)

In: Name the recorded Peptide exchange (MHC class I binding score, peptide exchange yield) for 53 (KMIETDILQKV; listed as Homo sapiens) [compound 53] .
Out: “++++” (≥75% = ++++)

In: Any idea what its Peptide exchange (MHC class I binding score, peptide exchange yield) is? The substance is 289 (VLLEIEDLQV; listed as Homo sapiens) [compound 289]
Out: “++++” (≥75% = ++++)

In: Please give the measured Peptide exchange (MHC class I binding score, peptide exchange yield) for this substance: 256 (FLPPEHTIVYI; listed as Homo sapiens) [compound 256]
Out: “+++” (≥50 = +++)

In: Please report the recorded Peptide exchange (MHC class I binding score, peptide exchange yield) for 193 (QLLDADGFLNV; listed as Homo sapiens) [compound 193] .
Out: “+++” (≥50 = +++)

* * *

Target: HLA-A*02:01 (Homo sapiens, UniProt P04439, D140Y/D185E/D98H/E176V/E277Q/G131W/G231S/I119V/I121R/I166T/I218V/L300P/L318F/N151K/N90K/P208A/P217A/Q86G/Q94H/R138H/R169H/T345S)
Assay: MHC binding assay (UV-ligand exchange, β2m ELISA, peptide exchange yield)
Details: binding of HLA-class I restricted peptides to HLA-A*02:01, UV-ligand exchange
measured-attribute: Peptide exchange (MHC class I binding score, peptide exchange yield)

{"substance": "615 (VLPPDTDPA; listed as Homo sapiens) [compound 615]", "assay-value": "“++” (≥20% = ++)"}
{"substance": "139 (SVMEVNSGIYRV; listed as Homo sapiens) [compound 139]", "assay-value": "“+++” (≥50 = +++)"}
{"substance": "263 (LLVSNLDFGV; listed as Homo sapiens) [compound 263]", "assay-value": "“+++” (≥50 = +++)"}
{"substance": "275 (YLVYILNEL; listed as Homo sapiens) [compound 275]", "assay-value": "“++” (≥20% = ++)"}
{"substance": "497 (GLLEKLTAI; listed as Homo sapiens) [compound 497]", "assay-value": "“+++” (≥50 = +++)"}

In: # Peptide exchange (MHC class I binding score, peptide exchange yield) lookup, item 40 (TLLVKVFSV; listed as Homo sapiens) [compound 40]
Out: “+++” (≥50 = +++)

In: Form field: reported Peptide exchange (MHC class I binding score, peptide exchange yield) of 391 (YVYPQRLNFV; listed as Homo sapiens) [compound 391]
Out: “+++” (≥50 = +++)

In: Entry 71 (GILARIASV; listed as Homo sapiens) [compound 71] : reported Peptide exchange (MHC class I binding score, peptide exchange yield) = ?
Out: “+++” (≥50 = +++)

In: Quick one: Peptide exchange (MHC class I binding score, peptide exchange yield) for 210 (LLLNAVLTV; listed as Homo sapiens) [compound 210] ?
Out: “++” (≥20% = ++)

In: Would you mind telling me what Peptide exchange (MHC class I binding score, peptide exchange yield) value was observed for 595 (VLLSIYPRV; listed as Homo sapiens) [compound 595] ?
Out: “+++” (≥50 = +++)
